# TARGET_DESC: T1, Human PD-L1-HIS (human, UniProt Q9NZQ7 19-238)
# T1 construct: also called HIS-tagged monovalent PD-L1; His-tagged human PD-L1; not shown: His tag
# EXPERIMENT_NOTES: ForteBio, IgG, monovalent
ENDPOINT_LABEL: Kd (nM)
Give a bare numeral; the unit nM is implied.

Worked cases, answers included:
- BINDER: "BiPDL4-44 (antibody, V domains shown, Fourth generation, IgG) VH: QVQLVESGGGVIQPGRSLRLSCAASGFTFSAYLMHWVRQAPGKGLEWVAAIGYDGMNKYYADSVKGRFTISRDNSKNTLYLQMNSLRAEDTAVYYCARAGIEYSYAYTDYWGQGTLVTVSS VL: EIVLTQSPGTLSLSPGERATLSCRASHSVVSSYLAWYQQKPGQAPRLLIYGASSREDGIPDRFSGSGSGTDFTLTISRLEPEDFAVYYCVQFGWWPPRTFGGGTKVEIK"
  OUTPUT_UNIT: "nM"
  Kd: 7.89
- BINDER: "BiPDL4-14 (antibody, V domains shown, Fourth generation, IgG) VH: QVQLVESGGGVVQPGRSLRLSCAASGFTFDEYGMHWVRQAPGKGLEWVAVIGYDGLNKYYADSVKGRFTISRDNSKNTLYLQMNSLRAEDTAVYYCARAGIEYSYAYTDYWGQGTLVTVSS VL: EIVLTQSPGTLSLSPGERATLSCRASQFVYSSDLAWYQQKPGQAPRLLIYGASTRKTGIPDRFSGSGSGTDFTLTISRLEPEDFAVYYCLQFGWWPPRTFGGGTKVEIK"
  OUTPUT_UNIT: "nM"
  Kd: 2.26

Next binder, please.
Entry under test: BiPDL4-24 (antibody, V domains shown, Fourth generation, IgG) VH: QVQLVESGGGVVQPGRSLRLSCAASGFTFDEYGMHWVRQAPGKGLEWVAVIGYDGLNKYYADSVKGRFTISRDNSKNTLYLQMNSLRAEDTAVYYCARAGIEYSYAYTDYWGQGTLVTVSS VL: EIVLTQSPGTLSLSPGERATLSCRASNSVVSSYLAWYQQKPGQAPRLLIYGAASRANGIPDRFSGSGSGTDFTLTISRLEPEDFAVYYCVQFGWWPPRTFGGGTKVEIK . Its Kd was 7.24
